target.or.system: human IGF1R (Homo sapiens)
Sequence (P08069 31-1367): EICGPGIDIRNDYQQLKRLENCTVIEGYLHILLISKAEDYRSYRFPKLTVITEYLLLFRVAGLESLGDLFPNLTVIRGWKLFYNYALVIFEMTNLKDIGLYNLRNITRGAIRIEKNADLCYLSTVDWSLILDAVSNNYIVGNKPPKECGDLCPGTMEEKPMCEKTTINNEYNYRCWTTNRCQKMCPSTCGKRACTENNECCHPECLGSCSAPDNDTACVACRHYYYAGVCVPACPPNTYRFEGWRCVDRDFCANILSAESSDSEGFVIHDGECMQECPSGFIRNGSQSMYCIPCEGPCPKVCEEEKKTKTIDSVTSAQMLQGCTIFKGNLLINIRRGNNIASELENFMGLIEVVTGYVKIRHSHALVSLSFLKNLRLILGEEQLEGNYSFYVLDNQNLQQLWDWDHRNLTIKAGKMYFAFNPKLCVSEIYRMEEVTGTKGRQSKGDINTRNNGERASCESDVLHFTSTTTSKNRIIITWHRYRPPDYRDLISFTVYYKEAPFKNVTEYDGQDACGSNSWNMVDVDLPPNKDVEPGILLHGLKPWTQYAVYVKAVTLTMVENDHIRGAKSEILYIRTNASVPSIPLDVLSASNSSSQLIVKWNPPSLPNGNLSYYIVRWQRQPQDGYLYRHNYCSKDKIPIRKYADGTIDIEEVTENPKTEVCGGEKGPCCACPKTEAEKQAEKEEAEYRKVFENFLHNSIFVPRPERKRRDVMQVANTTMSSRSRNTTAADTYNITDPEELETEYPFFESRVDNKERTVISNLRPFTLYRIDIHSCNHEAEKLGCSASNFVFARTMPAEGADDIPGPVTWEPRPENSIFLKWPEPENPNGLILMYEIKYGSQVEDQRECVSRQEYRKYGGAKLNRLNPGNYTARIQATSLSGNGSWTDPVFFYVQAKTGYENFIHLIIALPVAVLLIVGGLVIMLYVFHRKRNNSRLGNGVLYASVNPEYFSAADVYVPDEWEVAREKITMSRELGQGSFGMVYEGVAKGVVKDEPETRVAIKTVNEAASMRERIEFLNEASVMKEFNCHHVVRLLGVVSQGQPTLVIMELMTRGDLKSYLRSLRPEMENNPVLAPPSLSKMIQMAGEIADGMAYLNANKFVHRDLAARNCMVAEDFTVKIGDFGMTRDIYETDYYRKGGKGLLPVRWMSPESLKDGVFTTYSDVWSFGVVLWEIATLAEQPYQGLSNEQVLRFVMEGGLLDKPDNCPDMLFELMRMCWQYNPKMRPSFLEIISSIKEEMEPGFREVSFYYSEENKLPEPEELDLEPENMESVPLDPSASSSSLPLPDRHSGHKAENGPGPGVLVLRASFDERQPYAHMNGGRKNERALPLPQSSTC
experiment.description: Inhibition of insulin-like growth factor-1 receptor phosphorylation in R+ cells
condition.details: 30 nM IGF1, read-out: IGF cell class
Counter-ions that a name gives are not always drawn.
Please respond with reported IC50 for every item in the list.

# molecule Cc1cc(CNc2nccc(Nc3cc(OCc4cccc(Cl)c4)[nH]n3)n2)on1 [Example 93, hydrochloride] ; its IC50 = > 10 µM

What the record says about COc1cc(COc2cc(Nc3ccnc(NCc4cc(C)no4)n3)n[nH]2)cc(OC)c1 : IC50 is 1 to 10 µM

The reported value for c1coc(CCc2cc(Nc3ccnc(NCc4cc(C5CC5)no4)n3)n[nH]2)c1 in terms of IC50 is 1 to 10 µM

GET /value?item= Cc1cc(CNc2nccc(Nc3cc(CCc4cccc(N5CCOCC5)c4)[nH]n3)n2)on1 &field=IC50 returns > 10 µM

IC50 reading for Cc1cc(CNc2nccc(Nc3cc(CCc4cc(O)cc(O)c4)[nH]n3)n2)on1 : > 10 µM

COCCCc1cc(Nc2ccnc(NCc3cc(C4CC4)no3)n2)n[nH]1 yielded IC50 of 1 to 10 µM

// IC50 value for Cc1cc(CNc2nc(C)cc(Nc3cc(OC(C)C)[nH]n3)n2)on1 : > 10 µM

The molecule identified as CCCc1cc(Nc2ccnc(NCc3cc(C)no3)n2)n[nH]1 registered its IC50 at 0.1 to 1 µM
